Data origin, for the record: PubChem BioAssay (NCI)

Assay: NCI Yeast Anticancer Drug Screen. Data for the mlh1 rad18 strain (AID 175)
Settings: S. cerevisiae mlh1 rad18 strain growth inhibition; at 50.0 µM; hits give high values
Procedure: Growth inhibition of yeast strains with defined genetic alterations is measured as a screen for potential anti-cancer activity. Selected strains with alterations in DNA damage repair or cell cycle control were exposed to compounds and growth inhibition was measured relative to vehicle treated controls. The strain used in this assay is mlh1 rad18
About 79,000 compounds went through this panel and 15% of them were active in at least one assay; those are over-represented in the sample as a whole.
readout kind: growth inhibition (%)
One number for each entry, in %.

// solved cases for growth inhibition follow
{"compound": "C=C(Cl)C(=O)O", "growth inhibition, %": -7.55}
{"compound": "NC(=O)N=Nc1ccc(Br)cc1", "growth inhibition, %": 18.3}
{"compound": "O=C(Nc1ccccc1)O/N=C(/c1ccccc1)c1cccnc1", "growth inhibition, %": 6.3}
{"compound": "NC(=O)N/N=C(/CC1C(=O)Oc2ccccc21)c1ccccc1O (centres undefined)", "growth inhibition, %": 14}
{"compound": "CCCCCCCCCCCCCC(=O)Oc1ccc([N+](=O)[O-])cc1", "growth inhibition, %": 14.4}
{"compound": "COc1ccccc1C/C(=N/O)c1ccccc1OC", "growth inhibition, %": 4.35}
{"compound": "CN1CC2(C)OC3(CC2(C)N1C)N(C)N(C)CC3(C)O (centres undefined)", "growth inhibition, %": -8.95}
{"compound": "COC(=O)/C=C(/C(=O)OC)c1c(C)c(C)c2c(C)cc(C)cc(C)c1-2", "growth inhibition, %": 22.2}

Give growth inhibition for each listed item.
1. O=C(CCNC(=O)OCc1ccccc1)NC(Cc1ccccc1)C(=O)OCc1ccccc1 (centres undefined)
2. C[N+](C)(CCO)CCN1c2ccccc2Sc2ccccc21
3. N#CCCn1nc(SC2CCCCC2)c(=O)[nH]c1=O
4. CC(Oc1ccc2ccccc2c1I)C(=O)O (centres undefined)

Result:
1: 7.65; 2: -3.7; 3: 4.3; 4: 36.8

Hi, could you look up growth inhibition for each item in my list?
1. O=c1c2cccnc2ncn1CCN1CCCC1
2. Cc1cc(C(F)(F)F)cc(-n2nc(NS(=O)(=O)c3cc(C)c(Cl)cc3S)nc2N)n1
3. C1=C\CCCC/C=C/CC/1
4. N#CC1NCNC1N (centres undefined)
5. C[S+](C)c1ccc(Cl)cc1
6. CCCCCCCC(=O)C(C)C
7. CC(=O)OC1CC(c2ccccc2)=NO1 (centres undefined)
8. O=C(Nc1ccc([N+](=O)[O-])cc1)c1ccc(Cl)cc1

Result:
[21.1, 33.5, 10.7, -16.8, 8.25, 4.35, -12.4, -36.5]

---

What growth inhibition was measured for each of the following?
Assay: NCI Yeast Anticancer Drug Screen. Data for the mlh1 rad18 strain (AID 175)
Details: S. cerevisiae mlh1 rad18 strain growth inhibition; at 50.0 µM; hits give high values
The panel holds about 79,000 compounds, 15% with a hit somewhere; the sample as a whole holds those more often.
Answers are plain numbers, in %.

{"compound": "CCOc1ccc(Nc2ncnc3sc4c(c23)CCCC4)cc1", "growth inhibition, %": 8.9}

I would be grateful if you could provide growth inhibition for each of the following entries.
1. CCCCCCCCCCCCCCC[N+](C)(C)C
2. CN1CC2=C(C1)C(N(C(=O)c1ccc(-c3ccccc3)cc1)C(=O)c1ccc(-c3ccccc3)cc1)=NCN2

Result:
1: 99.5; 2: 21.6

Give growth inhibition for each of the items listed below.
1. CC(=O)CC1CCc2ccc3ccccc3c2C1c1cccc2ccccc12 (centres undefined)
2. N/N=C1/C(=N/O)CCc2nonc21

Result:
1: 25.4; 2: -27.1

The following compounds each have a reported value; give each one's growth inhibition.
1. CCCCSC(CC(O)C(O)COC(=O)c1ccc([N+](=O)[O-])cc1)SCCCC (centres undefined)
2. C[N+]1(C)CCCC(O)(C(=O)c2ccccc2)C1 (centres undefined)

Result:
-5.85
17.1
